Test system: Blumeria graminis
Assay Protocol: pot culture method, protective control of wheat powdery mildew
Format: in vivo
Run Parameters: Blumeria graminis; control efficacy, potted wheat, sprayed 24 h before inoculation, 7 days after inoculation
Measured Quantity: EC50 (µg/mL)
Number only, in µg/mL; omit the unit.

Hey, Blumeria graminis data for COC(=O)N(OC)c1ccccc1COc1ccn(-c2ccc(Cl)cc2)n1 [pyraclostrobin] : EC50 came out at 12

Observed EC50 on Blumeria graminis, entry OC(Cc1ccccc1Cl)(Cn1nc[nH]c1=S)C1(Cl)CC1 (centres unmarked) [prothioconazole] , equals 14

Sample CCCC1COC(Cn2cncn2)(c2ccc(Cl)cc2Cl)O1 (centres unmarked) [propiconazole] , system: Blumeria graminis. Its EC50 is 11

// assay Blumeria graminis, entry CC(C)(C)C(O)(CCc1ccc(Cl)cc1)Cn1cncn1 (centres unmarked) [tebuconazole] , EC50 value = 13

Entry C=C(CN(C(=O)c1c(C(F)F)nn(C)c1F)C1CC1)c1ccc(Cl)cc1Cl [component A] under Blumeria graminis had EC50 of 16
